Origin of the recorded values: PubChem BioAssay (NCI)

TGI values by entry
Tested on: HOP-92 NSCLC
Test: NCI tumour cell line growth inhibition, 48 h
Supply the numeric figure in µM, leaving out any unit text.

INSERT INTO measurements (molecule, assay_result) VALUES
  ('CC[N+]1(C)CCC(O)(c2ccc(C)cc2)C(C(=O)c2ccc(C)cc2)C1 (centres undefined)', 46.2),
  ('S=C(N/N=C/c1cc(Cl)cc(Cl)c1)NC12CC3CC(CC(C3)C1)C2', 12),
  ('CC(O)CNC1=CC(=O)C(=O)c2ccccc21 (centres undefined)', 53.3),
  ('O=P1(C(O)/C=C/c2ccccc2)N(Cc2ccccc2)[C@@H]2CCCC[C@H]2N1Cc1ccccc1 (some centres undefined)', 7.48),
  ('O=C(OC12CC3CC(CC(C3)C1)C2)c1ccc(NCc2cc(O)ccc2O)cc1', 2.07),
  ('Cc1ccc(C(=O)Nc2ccc(CN3CCN(C)CC3)c(C(F)(F)F)c2)cc1C#Cc1cnc(N)c2ccc(F)cc12', 0.944);

For O=CN1CCN(C(=O)c2ccco2)C1=S , what is its reported TGI?
18.7

And for COc1cc2c3c(cc(Cl)nc3c1OC)C(=O)C(=O)N2 ?
3.44

And for Cc1cc(O)c2c(c1)C(O)(c1ccc3c(c1O)C(=O)c1c(O)cc(C)cc1C3(O)C1OC(CO)C(O)C(O)C1O)c1cccc(O)c1C2=O (centres undefined) ?
20.4

And for C[C@]12CC[C@@H]3c4ccc(O)c([N+](=O)[O-])c4CC[C@H]3[C@@H]1CC[C@@H]2NS(=O)(=O)c1ccc(C(F)(F)F)cc1 ?
2.62
